# System name: P-gp (Homo sapiens)
# Run description: Inhibition of P-gp digoxin efflux transport in MDR1-MDCK cells
# Description: A preincubation with EBO or known inhibitor was performed on both sides to preload the cells. After 30 min, the preincubation solution was aspirated. […] Cell monolayer integrity was examined using lucifer yellow (excitation 450 nm and emission 538 nm). The concentrations of the probe substrate in the donor and receiver samples, as well as EBO in dosing solutions, were determined by LC-MS/MS.
pIC50: −log10 of the molar value.
Readout type: pIC50

              structure_notation  value_observed
0  NC[C@H]1OB(O)c2c(OCCCO)cccc21            2.25

* * *

# Tested on: CYP3A4
# Run description: CYP mRNA induction in plated human hepatocytes (qPCR)
# Assay conditions: human, plated human hepatocytes
Readout type: EC50 at 2 days

              structure_notation    readout_type  value_observed
0  NC[C@H]1OB(O)c2c(OCCCO)cccc21  EC50 at 2 days        > 100 µM

* * *

# Test system: CYP3A4
# Run description: CYP inhibition (direct and metabolism-dependent) in human hepatic microsomes
# Assay type: in vitro ADME
# Assay conditions: human, microsomes, pH 7.4; CYP3A4 (Testosterone); read-out: as an Inhibitor IC50
# Method: The direct inhibitory potential of EBO on cytochrome P450 activities O-deethylase (CYP1A2), bupropion hydroxylase (CYP2B6), amodiaquine N-deethylase (CYP2C8), diclofenac 4′-hydroxylase (CYP2C9), S-mephenytoin 4′-hydroxylase (CYP2C19), bufuralol 1′-hydroxylase (CYP2D6), chlorzoxazone 6-hydroxylase (CYP2E1), testosterone 6β-hydroxylase (CYP3A), and midazolam 1′-hydroxylase (CYP3A) was assessed in vitro using human hepatic microsomes according to Covance Laboratory (Madison, WI, USA) SOP. […]
pIC50: −log10 of the molar value.
Readout type: pIC50

In [3]: df
Out[3]:
                  structure_notation  value_observed
0  NC[C@H]1OB(O)c2c(OCCC(=O)O)cccc21          < 3.00

* * *

# Run description: in vitro
# Assay conditions: human, Caco-2
# Protocol: ^14C-EBO permeability in Caco-2 Cells (MDR1/Protein Glycoprotein or P-gp) was determined using methodologies described previously. The apparent permeability of ^14C-EBO was determined in both the apical to basolateral and the basolateral to apical directions, in triplicate, at final concentrations of 1, 10, and 100 μM. Cell monolayers were incubated with ^14C-EBO at 37 °C for 1, 2, 3, and 4 h. […]
Readout type: Papp

                                   molecule  readout_type   value_observed
0  OC[C@@H](O)[C@@H](O)[C@H](O)[C@H](O)CO [mannitol, reference compound]          Papp  1.9 to 6.9 nm/s

* * *

# System name: P-gp (Homo sapiens, UniProt P08183)
# Sequence (P08183 whole entry): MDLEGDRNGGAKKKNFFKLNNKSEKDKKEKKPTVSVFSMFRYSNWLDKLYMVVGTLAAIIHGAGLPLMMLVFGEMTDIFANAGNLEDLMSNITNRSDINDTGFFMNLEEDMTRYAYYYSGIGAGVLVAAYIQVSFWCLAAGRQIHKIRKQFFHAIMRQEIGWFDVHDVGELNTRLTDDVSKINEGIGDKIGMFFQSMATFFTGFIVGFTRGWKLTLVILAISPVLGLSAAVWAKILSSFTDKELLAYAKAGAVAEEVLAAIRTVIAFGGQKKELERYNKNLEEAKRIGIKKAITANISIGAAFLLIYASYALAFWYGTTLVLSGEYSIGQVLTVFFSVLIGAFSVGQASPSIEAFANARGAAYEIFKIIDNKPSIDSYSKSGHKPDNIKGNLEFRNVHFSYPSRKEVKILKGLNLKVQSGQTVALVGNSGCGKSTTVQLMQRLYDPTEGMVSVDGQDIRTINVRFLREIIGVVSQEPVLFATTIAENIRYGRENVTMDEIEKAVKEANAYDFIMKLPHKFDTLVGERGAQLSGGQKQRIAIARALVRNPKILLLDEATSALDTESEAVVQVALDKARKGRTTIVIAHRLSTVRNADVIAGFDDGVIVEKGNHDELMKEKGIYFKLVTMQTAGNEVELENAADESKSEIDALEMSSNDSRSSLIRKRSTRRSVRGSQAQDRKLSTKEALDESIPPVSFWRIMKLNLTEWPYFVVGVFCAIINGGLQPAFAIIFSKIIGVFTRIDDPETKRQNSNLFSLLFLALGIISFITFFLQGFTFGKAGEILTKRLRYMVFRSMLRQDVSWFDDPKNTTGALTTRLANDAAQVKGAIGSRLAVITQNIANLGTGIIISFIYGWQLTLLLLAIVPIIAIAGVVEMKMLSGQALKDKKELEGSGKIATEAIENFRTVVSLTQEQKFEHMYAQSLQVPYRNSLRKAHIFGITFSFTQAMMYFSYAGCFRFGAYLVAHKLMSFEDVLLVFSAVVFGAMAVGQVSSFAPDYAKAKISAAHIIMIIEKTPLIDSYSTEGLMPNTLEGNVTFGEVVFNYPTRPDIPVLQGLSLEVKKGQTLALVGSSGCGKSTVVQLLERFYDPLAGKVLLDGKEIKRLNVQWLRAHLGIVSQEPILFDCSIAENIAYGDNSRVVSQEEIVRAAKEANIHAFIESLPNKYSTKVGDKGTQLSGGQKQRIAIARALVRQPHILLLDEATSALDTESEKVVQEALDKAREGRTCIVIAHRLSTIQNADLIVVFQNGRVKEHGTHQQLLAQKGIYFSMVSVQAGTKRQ
# Run description: Caco-2 efflux ratio without/with P-gp inhibitor (P-gp substrate)
# Assay type: in vitro ADME
# Set-up: host or cells: Caco-2
# Assay conditions: human, with cyclosporine A (10 µM); Caco-2; 1, 10, 100 µM; Cyclosporine A (10 µM); 1–4 h; read-out: Efflux Ratio
Readout type: efflux ratio

In [3]: df
Out[3]:
              structure_notation  value_observed
0  NC[C@H]1OB(O)c2c(OCCCO)cccc21             < 2
